- SYSTEM: folate receptor beta (Homo sapiens (Human), UniProt P14207)
- Sequence (P14207 17-255): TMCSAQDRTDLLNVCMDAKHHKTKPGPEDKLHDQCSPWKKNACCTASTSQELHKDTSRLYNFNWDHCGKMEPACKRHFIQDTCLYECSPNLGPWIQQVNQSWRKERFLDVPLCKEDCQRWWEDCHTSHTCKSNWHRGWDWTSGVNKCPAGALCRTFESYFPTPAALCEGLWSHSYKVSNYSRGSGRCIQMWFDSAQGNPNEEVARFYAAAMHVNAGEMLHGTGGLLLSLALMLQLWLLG
The class of a record is decided solely by its measured Kd; consult class 1: < 0.01 nM; class 2: ≥ 0.01 nM and < 0.04 nM; class 3: ≥ 0.04 nM

{"MOLECULE": "Cc1nc2cc(F)c(-c3cnc(N4CCN(C(=O)COCCn5cc(CN(C)CCOCCOCCOCCNC(=O)CC[C@H](NC(=O)c6ccc(NCc7cnc8nc(N)nc(O)c8n7)cc6)C(=O)O)nn5)CC4)nc3)nc2c(N[C@H](C)c2cc(C#N)ccc2F)c1Cl [Compound I-94]", "SYSTEM": "folate receptor beta (Homo sapiens (Human), UniProt P14207)", "LABEL CLASS": "class 2"}
{"MOLECULE": "Cc1nc2cc(F)c(-c3cnc(N4CCN(C(=O)COCCn5cc(CCCN6CCC7(CC6)CCN(C(=O)CC[C@H](NC(=O)c6ccc(NCc8cnc9nc(N)nc(O)c9n8)cc6)C(=O)O)CC7)nn5)CC4)nc3)nc2c(N[C@H](C)c2cc(C#N)ccc2F)c1Cl [Compound I-90]", "SYSTEM": "folate receptor beta (Homo sapiens (Human), UniProt P14207)", "LABEL CLASS": "class 1"}
{"MOLECULE": "Cc1nc2cc(F)c(-c3cnc(N4CCN(C(=O)COCCn5cc(COCCOCCOCCOCCNC(=O)CCCNC(=O)c6ccc(NCc7cnc8nc(N)nc(O)c8n7)cc6)nn5)CC4)nc3)nc2c(N[C@H](C)c2cc(C#N)ccc2F)c1Cl [Compound I-96]", "SYSTEM": "folate receptor beta (Homo sapiens (Human), UniProt P14207)", "LABEL CLASS": "class 3"}
{"MOLECULE": "Cc1nc2cc(F)c(-c3cnc(N4CCN(C(=O)COCCOCCOCCOCCOCCOCCn5cc(CC[C@H](NC(=O)c6ccc(NCc7cnc8nc(N)nc(O)c8n7)cc6)C(=O)O)nn5)CC4)nc3)nc2c(N[C@H](C)c2cc(C#N)ccc2F)c1Cl [Compound I-92]", "SYSTEM": "folate receptor beta (Homo sapiens (Human), UniProt P14207)", "LABEL CLASS": "class 1"}
{"MOLECULE": "Cc1nc2cc(F)c(-c3cnc(N4CCN(C(=O)COCCOCCOCCOCCOCCOCCn5cc(CC[C@H](NC(=O)c6ccc(N(C)Cc7ccc8nc(N)[nH]c(=O)c8c7)cc6)C(=O)O)nn5)CC4)nc3)nc2c(N[C@H](C)c2cc(C#N)ccc2F)c1Cl [Compound I-85]", "SYSTEM": "folate receptor beta (Homo sapiens (Human), UniProt P14207)", "LABEL CLASS": "class 3"}
{"MOLECULE": "Cc1nc2cc(F)c(-c3cnc(N4CCN(C(=O)COCCOCCN5CCC6(CC5)CCN(C(=O)CC[C@H](NC(=O)c5ccc(NCc7cnc8nc(N)nc(O)c8n7)cc5)C(=O)O)CC6)CC4)nc3)nc2c(N[C@H](C)c2cc(C#N)ccc2F)c1Cl [Compound I-84]", "SYSTEM": "folate receptor beta (Homo sapiens (Human), UniProt P14207)", "LABEL CLASS": "class 1"}
{"MOLECULE": "Cc1nc2cc(F)c(-c3cnc(N4CCN(C(=O)COCCn5cc(CN(CCO)CCOCCOCCOCCNC(=O)CC[C@H](NC(=O)c6ccc(NCc7cnc8nc(N)nc(O)c8n7)cc6)C(=O)O)nn5)CC4)nc3)nc2c(N[C@H](C)c2cc(C#N)ccc2F)c1Cl [Compound I-93]", "SYSTEM": "folate receptor beta (Homo sapiens (Human), UniProt P14207)", "LABEL CLASS": "class 2"}
{"MOLECULE": "Cc1nc2cc(F)c(-c3cnc(N4CCN(C(=O)COCCn5cc(COCCOCCOCCN6CCN(C(=O)CC[C@H](NC(=O)c7ccc(NCc8cnc9nc(N)nc(O)c9n8)cc7)C(=O)O)CC6)nn5)CC4)nc3)nc2c(N[C@H](C)c2cc(C#N)ccc2F)c1Cl [Compound I-95]", "SYSTEM": "folate receptor beta (Homo sapiens (Human), UniProt P14207)", "LABEL CLASS": "class 2"}
{"MOLECULE": "Cc1nc2cc(F)c(-c3cnc(N4CCN(C(=O)COCCOCCOCCOCCOCCn5cc(CC[C@H](NC(=O)c6ccc(NCc7cnc8nc(N)nc(O)c8n7)cc6)C(=O)O)nn5)CC4)nc3)nc2c(N[C@H](C)c2cc(C#N)ccc2F)c1Cl [Compound I-89]", "SYSTEM": "folate receptor beta (Homo sapiens (Human), UniProt P14207)", "LABEL CLASS": "class 3"}
{"MOLECULE": "Cc1nc2cc(F)c(-c3cnc(N4CCN(C(=O)COCCOCCOCCOCCOCCOCCn5cc(CC[C@H](NC(=O)c6ccc(CCc7ccc8nc(N)nc(O)c8c7)cc6)C(=O)O)nn5)CC4)nc3)nc2c(N[C@H](C)c2cc(C#N)ccc2F)c1Cl [Compound I-82]", "SYSTEM": "folate receptor beta (Homo sapiens (Human), UniProt P14207)", "LABEL CLASS": "class 2"}

Ask | Kindly identify the class of Cc1nc2cc(F)c(-c3cnc(N4CCN(C(=O)COCCOCCOCCOCCOCCOCCn5cc(CC[C@H](NC(=O)c6ccc(OCc7ccc8nc(N)nc(O)c8c7)cc6)C(=O)O)nn5)CC4)nc3)nc2c(N[C@H](C)c2cc(C#N)ccc2F)c1Cl [Compound I-87] .
Reply | class 2

Ask | Repeat for the following molecule: Cc1nc2cc(F)c(-c3cnc(N4CCN(C(=O)COCCOCCOCCOCCOCCOCCn5cc(CC[C@H](NC(=O)c6ccc(N(C)Cc7cnc8nc(N)[nH]c(=O)c8n7)cc6)C(=O)O)nn5)CC4)nc3)nc2c(N[C@H](C)c2cc(C#N)ccc2F)c1Cl [Compound I-86]
Reply | class 2
